method.summary: binders of probe aFST on microarray, primary screen, stem cell growth factor project, biochemical, small-molecule microarray, fluorescence 635/667 (AID 1086);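 further: score merges 667 nm fluorescence with signal-to-noise of each printed compound spot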
assay.setup: higher = more signal
Entries annotated with measured composite z-score
Give your answer as a number; write no unit.

compound	composite z-score
Cc1ccc(S[C@]2(C(=O)NCc3ccccc3)CC(=O)N(Cc3ccccc3Cl)[C@@H]2c2ccc(CO)cc2)cc1	-0.603
CC(C)Cc1ccc(CN2CC[C@@H](NC(=O)c3ccccc3)C2)cc1	-0.174
C=CCNC(=O)[C@@H]1[C@H]2C(=O)O[C@H](c3ccccc3)[C@H](c3ccccc3)N2[C@H](c2ccc(OCCO)cc2)[C@@]12C(=O)Nc1ccc(C#CC3=CCCCC3)cc12	0.597

Here's the next entry for you.
-- ask Any idea what composite z-score was measured for CCCCC(=C=CC[C@@H](O)c1ccccc1OCCO)C[C@@H](O)c1ccccn1 ?
-- reply -0.0288

---

method.summary: CREB reporter modulators without forskolin, primary screen, cell-based, PC12, CRE-LacZ reporter, unstimulated (AID 1145)
assay.setup: no forskolin, luminescence, 4.5 h, higher = more signal, called active from +8 up or from −8 down
z-score listing for selected compounds.
No unit in the answer, only the number.

Known z-score results, listed for orientation:
compound	z-score
CCCCCCc1nc(Cc2cc(OC)c(OC)c(OC)c2)c(C)c2c1[Si](C(C)C)(C(C)C)OC2	0.367
COc1ccc(C(=O)Nc2cccc(CN3C(=O)[C@]4(O[C@H](CC(=O)N(CCO)Cc5ccccc5)[C@@H]([Si](C)(C)c5ccc(OC)cc5)[C@@H]4C)c4ccccc43)c2)cc1	1.72
CN1C(=O)C2C=CC(C(O)c3ccc([N+](=O)[O-])cc3)N(Nc3ccccc3)C2C1=O (stereo unspecified)	0.0535
COCCOC(=O)N1C(=O)[C@@]2(c3cc(C#CCNC(N)=O)ccc31)[C@H](C(=O)Nc1nc3ccccc3s1)[C@H]1C(=O)O[C@H](c3ccccc3)[C@H](c3ccccc3)N1[C@@H]2c1ccc(O)cc1	-0.168
COc1ccc(C(=O)Nc2ccc(CN3C(=O)[C@]4(O[C@H](CC(=O)N(CCO)Cc5ccccc5)[C@@H]([Si](C)(C)c5ccc(OC)cc5)[C@@H]4C)c4ccccc43)cc2)cc1	0.339

Now consider the entry below.
-- ask What value of z-score has been recorded for this entry: COc1cccc(C)c1NC(=O)O[C@H]1[C@H](OC(=O)Nc2ccccc2)[C@@H](OC(=O)Nc2ccccc2)[C@@H](OC)O[C@@H]1CO
-- reply 1.61

---

Below, each of the compounds is paired with its reported composite z-score value.
tgt: Dihydroorotate dehydrogenase (quinone), mitochondrial (Plasmodium falciparum (isolate 3D7)) (UniProt Q08210)
Sequence (Q08210 whole entry, looked up): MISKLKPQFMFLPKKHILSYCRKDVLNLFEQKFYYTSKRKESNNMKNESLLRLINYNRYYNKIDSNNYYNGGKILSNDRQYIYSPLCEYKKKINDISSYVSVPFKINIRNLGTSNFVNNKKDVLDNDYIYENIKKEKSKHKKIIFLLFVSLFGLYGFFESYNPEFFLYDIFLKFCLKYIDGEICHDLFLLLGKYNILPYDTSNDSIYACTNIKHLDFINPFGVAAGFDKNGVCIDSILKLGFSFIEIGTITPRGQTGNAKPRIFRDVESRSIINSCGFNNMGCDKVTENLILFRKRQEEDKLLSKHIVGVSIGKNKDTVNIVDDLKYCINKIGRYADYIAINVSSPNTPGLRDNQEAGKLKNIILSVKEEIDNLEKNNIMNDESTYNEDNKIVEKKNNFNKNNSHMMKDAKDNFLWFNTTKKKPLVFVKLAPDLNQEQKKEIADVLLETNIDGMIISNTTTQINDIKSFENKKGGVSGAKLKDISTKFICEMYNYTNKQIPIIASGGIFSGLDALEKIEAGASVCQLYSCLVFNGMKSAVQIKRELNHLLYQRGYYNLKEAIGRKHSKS
method.summary: PfDHODH enzyme inhibitors, primary screen, biochemical, C-terminal His tag, absorbance 600 nm (AID 1175);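 further: recombinant parasite enzyme with a five histidine tag at its C terminus; test concentration not given here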
assay.setup: DCIP absorbance 600 nm, higher = more signal, called active from +8 up or from −8 down
The source made the active and inactive calls.

Here is how some compounds turned out for composite z-score.
>>> df
                                   compound      recorded_value
0  O=C1NC(=O)C2C1C=CC(C(O)c1ccc(F)cc1)N2Nc1ccc(Cl)cc1Cl (stereo not drawn)    0.827 (inactive)
1  CCCCCCc1nc(-c2ccc(OC)nc2)c(C)c2c1[Si](C(C)C)(C(C)C)OC2       -3 (inactive)
2  CN1C(=O)C2C(C1=O)C1C=C(CCCO)C2C(C2CC2)N1C (stereo not drawn)    -2.87 (inactive)
3  COC(=O)C[C@H]1O[C@]2(C(=O)N(C)c3ccccc32)[C@@H](C)[C@@H]1[Si](C)(C)c1ccccc1   -0.343 (inactive)
4  COc1cccc(C)c1NC(=O)O[C@H]1[C@H](OC(=O)Nc2ccccc2)[C@@H](OC(=O)Nc2ccccc2)[C@@H](OC)O[C@@H]1CO  -0.0526 (inactive)

-- ask Query (compound): CO[C@H]1O[C@H](CO)[C@@H](OC(=O)Nc2cccc(F)c2)[C@H](OC(=O)Nc2ccc3c(c2)OCO3)[C@@H]1OC(=O)Nc1ccc2c(c1)OCO2 ; field requested: composite z-score
-- reply 0.368 (inactive)

-- ask Entry under review: C=C(CCCC)/C(=C/C[C@@H](OC(C)=O)c1cccc(OCCO)c1)c1cc(C(=O)OC)ccc1OC . Reported composite z-score?
-- reply -0.943 (inactive)
